# Experimental Target: CDK2/Cyclin E1 (Homo sapiens)
# Assay Overview: CDK2/Cyclin E1 Caliper LabChip EZ Reader mobility shift assay
# Type: biochemical
# Set-up: purchased Eurofins 14-475
# Study Conditions: read-out: Caliper Assay (CDK2/CCNE1): IC50
Reported Endpoint: IC50

| Molecule | Measurement |
| --- | --- |
| COC(=O)[C@H](CO)NC(=O)[C@@H]1CN(C(=O)c2cnn(Cc3ccccc3)c2)CC12CN(C(=O)[C@H]1CC1(C)C)C2 [I-209A] | 1000 to 10000 nM |
| C[C@@H](OCC1CCCCC1)[C@H](NC(=O)[C@H]1CN(C(=O)c2cnn(Cc3ccccc3)c2)CC12CN(C(=O)[C@H]1CC1(C)C)C2)C(=O)N1CCC(F)(F)CC1 [I-149B] | 100 to 1000 nM |
| COC[C@H]1CCCN(C(=O)[C@@H](NC(=O)[C@@H]2CN(C(=O)c3cncs3)CC23CN(C(=O)[C@H]2CC2(C)C)C3)[C@@H](C)O[C@H](C)C2CCCCC2)C1 [I-367] | ≤ 10 nM |
| CNC(=O)C(NC(=O)[C@@H]1CN(C(=O)c2cncs2)CC12CN(C(=O)[C@H]1CC1(C)C)C2)c1ccc(C)nn1 (stereo partly drawn) | > 10000 nM |

Ask: Fill in the recorded IC50 for this molecule, with CDK2/Cyclin E1 (Homo sapiens) as test system: CNC(=O)[C@@H](NC(=O)[C@H]1CN(C(=O)c2cnn(CC3CC3)c2)CC12CN(C(=O)CC1CC1)C2)[C@@H](C)OCc1ccccc1 [I-53B]
Reply: > 10000 nM

Ask: Observed IC50 on CDK2/Cyclin E1 (Homo sapiens) for C[C@@H](OCC1CCCCC1)[C@H](NC(=O)[C@@H]1CN(C(=O)c2cnn(Cc3ccccc3)c2)CC12CN(C(=O)[C@H]1CC1(C)C)C2)C(=O)N1CC2(CNC2)C1 , please.
Reply: ≤ 10 nM

###

# Experimental Target: CDK2/Cyclin E1 (Homo sapiens, UniProt P24941)
# Assay Overview: CDK2/Cyclin E1 Caliper LabChip EZ Reader mobility shift assay
# Format: biochemical
# Design: purchased Eurofins 14-475
# Study Conditions: read-out: Caliper Assay (CDK2/CCNE1): IC50
pIC50: −log10 of the molar value.
Reported Endpoint: pIC50

In the examples that follow, each entry is paired with its recorded pIC50.
| Compound | pIC50 |
| --- | --- |
| CNC(=O)[C@@H](NC(=O)[C@@H]1CN(C(=O)c2scnc2C(C)(C)C)CC12CN(C(=O)[C@H]1CC1(C)C)C2)[C@@H](C)OCC1CCCCC1 [I-231A] | 5.00 to 6.00 |
| Cc1ccc(CNC(=O)[C@@H]2CN(C(=O)c3cnn(Cc4ccccc4)c3)CC23CN(C(=O)C(C)(C)C2CC2)C3)nn1 | < 5.00 |

// switching to the query compound
Ask: Bench note: what pIC50 did CNC(=O)[C@@H](NC(=O)[C@@H]1CN(Cc2ccccn2)CC12CN(C(=O)[C@H]1CC1(C)C)C2)[C@@H](C)OCc1ccccc1 [I-40A] show?
Reply: < 5.00

###

pIC50 for assorted compounds
# Experimental Target: CDK2/Cyclin E1 (Homo sapiens, UniProt P24941)
# Assay Overview: CDK2/Cyclin E1 Caliper LabChip EZ Reader mobility shift assay
# Format: biochemical
# Parameters: purchased Eurofins 14-475
# Study Conditions: read-out: Caliper Assay (CDK2/CCNE1): IC50
pIC50: −log10 of the molar value.

Worked examples follow.
| Compound | pIC50 |
| --- | --- |
| CNC(=O)[C@@H](NC(=O)[C@@H]1CN(C(=O)c2cnn(Cc3ccccc3)c2)CC12CN(C(=O)C(C)C)C2)[C@@H](C)OCc1ccccc1 [I-54A] | 6.00 to 7.00 |
| C[C@@H](OCC12CCC(CC1)OC2)[C@H](NC(=O)[C@@H]1CN(C(=O)c2cncs2)CC12CN(C(=O)[C@H]1CC1(C)C)C2)C(=O)N1CCC[C@H](COC(F)(F)F)C1 [I-460] | ≥ 8.00 |

Ask: GET /values?readout=pIC50&system=CDK2/Cyclin E1 (Homo sapiens, UniProt P24941)&item= CNC(=O)[C@@H](NC(=O)[C@@H]1CN(C(=O)c2cnn(Cc3ccccc3)c2)CC12CN(C(=O)[C@H]1CC1(C)C)C2)C(C)(C)S(=O)(=O)Cc1ccccc1 [I-199]
Reply: 6.00 to 7.00

Ask: Please tell me: pIC50 of CNC(=O)[C@@H](NC(=O)[C@@H]1CN(C(=O)c2cnn(Cc3ccccc3)c2)CC12CN(C(=O)[C@H]1CC1(C)C)C2)[C@@H](C)NCC1CCCCC1 [I-269] , system CDK2/Cyclin E1 (Homo sapiens, UniProt P24941)?
Reply: 6.00 to 7.00

Ask: Value wanted: pIC50 (CDK2/Cyclin E1 (Homo sapiens, UniProt P24941)) of entry C[C@@H](OCC1CCCCC1)[C@H](NC(=O)[C@H]1CN(C(=O)c2cnn(Cc3ccccc3)c2)CC12CN(C(=O)[C@H]1CC1(C)C)C2)C(=O)N1CC(C)(C)C1 [I-153B]
Reply: 5.00 to 6.00

Ask: Requested read-out pIC50, target or system CDK2/Cyclin E1 (Homo sapiens, UniProt P24941), entry CN1CC[C@@H](NC(=O)[C@@H]2CN(C(=O)c3cnn(Cc4ccccc4)c3)CC23CN(C(=O)[C@H]2CC2(C)C)C3)C1=O [I-258]
Reply: < 5.00

Ask: Give CDK2/Cyclin E1 (Homo sapiens, UniProt P24941) pIC50 for CNC(=O)[C@@H](NC(=O)[C@@H]1CN(C(=O)c2cnn(Cc3ccccc3)c2)CC12CN(C(=O)[C@H]1CC1(C)C)C2)[C@@H](C)OCC1CCCCCC1 [I-166A]
Reply: ≥ 8.00

Ask: Hi! What's the reported pIC50 for CNC(=O)[C@@H](NC(=O)[C@H]1CN(C(=O)c2cnn(Cc3ccccc3)c2)CC12CN(C(=O)[C@H]1CC1(C)C)C2)[C@@H](C)OCCC1CCCCC1 [I-125B] on CDK2/Cyclin E1 (Homo sapiens, UniProt P24941)?
Reply: 7.00 to 8.00

Ask: Report pIC50 for C[C@@H](OCc1ccc(C(F)(F)F)cc1)[C@H](NC(=O)[C@@H]1CN(C(=O)c2cncs2)CC12CN(C(=O)[C@H]1CC1(C)C)C2)C(=O)N1C2CCC1COC2 [I-470] tested on CDK2/Cyclin E1 (Homo sapiens, UniProt P24941).
Reply: ≥ 8.00

Ask: Recorded pIC50 for COC1CCN(C(=O)[C@@H](NC(=O)[C@@H]2CN(C(=O)c3sc(C)nc3C)CC23CN(C(=O)[C@H]2CC2(C)C)C3)[C@@H](C)OCC23CCC(CC2)OC3)CC1 [I-451] with CDK2/Cyclin E1 (Homo sapiens, UniProt P24941), please?
Reply: 7.00 to 8.00

Ask: Give CDK2/Cyclin E1 (Homo sapiens, UniProt P24941) pIC50 for CNC(=O)[C@@H](NC(=O)[C@@H]1CN(C(=O)c2cnn(Cc3ccccc3)c2)CC12CN(C(=O)N(C)C1CC1)C2)[C@@H](C)OCC1CCCCC1 [I-295]
Reply: 6.00 to 7.00

Ask: Enter reported pIC50 observed with CDK2/Cyclin E1 (Homo sapiens, UniProt P24941) for CC1(C)C[C@@H]1C(=O)N1CC2(CN(C(=O)c3cnn(Cc4ccccc4)c3)C[C@H]2C(=O)N2CCO[C@H](Cc3ccccc3)C2)C1 [I-255]
Reply: < 5.00

Ask: So what pIC50 did C[C@@H](OCc1ccccc1)[C@H](NC(=O)C1CN(C(=O)c2cnn(Cc3ccccc3)c2)CC12CN(C(=O)[C@H]1CC1(C)C)C2)C(=O)N1CCNCC1 (some centres unmarked) [I-32] get with CDK2/Cyclin E1 (Homo sapiens, UniProt P24941)?
Reply: 7.00 to 8.00

Ask: CDK2/Cyclin E1 (Homo sapiens, UniProt P24941) / pIC50 / CO[C@H]1COCC[C@H]1NC(=O)[C@@H]1CN(C(=O)c2cnn(Cc3ccccc3)c2)CC12CN(C(=O)[C@H]1CC1(C)C)C2 [I-134A] : value?
Reply: < 5.00

###

Entries annotated with measured pIC50
# Experimental Target: CDK2/Cyclin E1 (Homo sapiens, UniProt P24941)
# Assay Overview: CDK2/Cyclin E1 Caliper LabChip EZ Reader mobility shift assay
# Assay type: biochemical
# Set-up: purchased Eurofins 14-475
# Study Conditions: read-out: Caliper Assay (CDK2/CCNE1): IC50
pIC50: −log10 of the molar value.

The following molecules have reported results that may help.
| Molecule | pIC50 |
| --- | --- |
| C[C@@H](OCC1CCC(F)(F)CC1)[C@H](NC(=O)[C@@H]1CN(C(=O)c2cncs2)CC12CN(C(=O)[C@H]1CC1(C)C)C2)C(=O)N1C2CCC1COC2 | ≥ 8.00 |
| C[C@@H](OCC1CCC(F)(F)CC1)[C@H](NC(=O)[C@@H]1CN(C(=O)c2cn[nH]c2)CC12CN(C(=O)C1(C(F)(F)F)CC1)C2)C(=O)N1CCOCC1 | 7.00 to 8.00 |

Ask: I'd like to know its pIC50. The molecule in question is CC1(C)C[C@@H]1C(=O)N1CC2(CN(C(=O)c3cnn(Cc4ccccc4)c3)C[C@H]2C(=O)N[C@H]2CCc3cc(Cl)ccc32)C1 [I-120A]
Reply: 6.00 to 7.00

Ask: Any idea what pIC50 was measured for CNC(=O)[C@@H](NC(=O)[C@@H]1CN(C(=O)c2cccnc2)CC12CN(C(=O)[C@H]1CC1(C)C)C2)[C@@H](C)OCc1ccccc1 [I-42A] ?
Reply: 5.00 to 6.00

Ask: Given the molecule CNC(=O)[C@@H](NC(=O)[C@H]1CN(C(=O)c2cnn(Cc3ccccc3)c2)CC12CN(C(=O)C1(CC3CC3)CC1)C2)[C@@H](C)OCc1ccccc1 [I-116B] , what is its reported pIC50?
Reply: < 5.00
